Molecular target: T1, human IL-2 (human, UniProt P60568 21-153, biotin-labeled in the IL2RB blocking assay)
T1 construct: also called biotin-labeled IL-2 (Acro Biosystems IL2-H82E4)
T1 sequence (P60568 21-153 limits assumed): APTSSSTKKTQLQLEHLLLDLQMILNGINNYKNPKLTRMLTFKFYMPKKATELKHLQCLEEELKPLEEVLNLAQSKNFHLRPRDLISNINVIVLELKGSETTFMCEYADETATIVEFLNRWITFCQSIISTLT
Assay: HTRF
Measurement Type: IL2 Binding
Field format: numeric only.

[Q] Reported IL2 Binding, binder PD1-R04-C10 (scFv, tied by the comment 'PD1_R04_C10- Internal anti-PD1 mAb' of PEP001315) scFv: MSTSTEQKLISEEDLQVQLVQSGAEVKKPGASVKVSCKASGYTFTTYYMHWVRQAPGQGLEWMGIINPSGGGTLYAQKFQGRVTMTRDTSTSTVYMELSSLRSEDTAVYYCAAGLFIWGQGTTVTVSSASGGGGSGGGGSGGGGSHASDIVMTQSPDSLAVSLGERATINCKASQSLLHSSSNKNYLAWYQQKPGQPPKLLIYWASTRESGVPDRFSGSGSGTDFTLTISSLQAEDVAVYYCQQYYSTPITFGPGTKVDIKGSGLNDIFEAQKIEWHEGKPIPNPLLGLDST : ____
[A] 4
